System: barnyardgrass (Echinochloa crus-galli)
Assay: Test A pre-/postemergence plant response
Type: in vivo
Conditions: Postemergence, 125 g ai/ha; 0 to 100 scale where 0 is no effect and 100 is complete control
READOUT: Plant response rating, Barnyardgrass
Enter a number only.

Sample answers from the record:
>>> df
                                   compound  value_reported
0  CCCc1ncc(C(=O)C2=C(O)CCCC2=O)c(=O)n1CC1CCCO1 (stereo not drawn)              80
1  COc1ccc(-n2c(-c3cccc(F)c3)ncc(C(=O)C3=C(O)CCCC3=O)c2=O)cc1              80

Switching to the query record.
Inquiry: Form field: reported Plant response rating, Barnyardgrass of O=C(C1=C(O)C2CCC(C2)C1=O)c1cnc(-c2cccc(Br)c2)n(C2CCCCC2)c1=O (stereo not drawn)
Reply text: 80
